# Target Or Test System: HiBit-WIZ fusion protein (Homo sapiens, UniProt O95785+Q96SW2)
# Sequence (O95785 whole entry, the tested form may be a part): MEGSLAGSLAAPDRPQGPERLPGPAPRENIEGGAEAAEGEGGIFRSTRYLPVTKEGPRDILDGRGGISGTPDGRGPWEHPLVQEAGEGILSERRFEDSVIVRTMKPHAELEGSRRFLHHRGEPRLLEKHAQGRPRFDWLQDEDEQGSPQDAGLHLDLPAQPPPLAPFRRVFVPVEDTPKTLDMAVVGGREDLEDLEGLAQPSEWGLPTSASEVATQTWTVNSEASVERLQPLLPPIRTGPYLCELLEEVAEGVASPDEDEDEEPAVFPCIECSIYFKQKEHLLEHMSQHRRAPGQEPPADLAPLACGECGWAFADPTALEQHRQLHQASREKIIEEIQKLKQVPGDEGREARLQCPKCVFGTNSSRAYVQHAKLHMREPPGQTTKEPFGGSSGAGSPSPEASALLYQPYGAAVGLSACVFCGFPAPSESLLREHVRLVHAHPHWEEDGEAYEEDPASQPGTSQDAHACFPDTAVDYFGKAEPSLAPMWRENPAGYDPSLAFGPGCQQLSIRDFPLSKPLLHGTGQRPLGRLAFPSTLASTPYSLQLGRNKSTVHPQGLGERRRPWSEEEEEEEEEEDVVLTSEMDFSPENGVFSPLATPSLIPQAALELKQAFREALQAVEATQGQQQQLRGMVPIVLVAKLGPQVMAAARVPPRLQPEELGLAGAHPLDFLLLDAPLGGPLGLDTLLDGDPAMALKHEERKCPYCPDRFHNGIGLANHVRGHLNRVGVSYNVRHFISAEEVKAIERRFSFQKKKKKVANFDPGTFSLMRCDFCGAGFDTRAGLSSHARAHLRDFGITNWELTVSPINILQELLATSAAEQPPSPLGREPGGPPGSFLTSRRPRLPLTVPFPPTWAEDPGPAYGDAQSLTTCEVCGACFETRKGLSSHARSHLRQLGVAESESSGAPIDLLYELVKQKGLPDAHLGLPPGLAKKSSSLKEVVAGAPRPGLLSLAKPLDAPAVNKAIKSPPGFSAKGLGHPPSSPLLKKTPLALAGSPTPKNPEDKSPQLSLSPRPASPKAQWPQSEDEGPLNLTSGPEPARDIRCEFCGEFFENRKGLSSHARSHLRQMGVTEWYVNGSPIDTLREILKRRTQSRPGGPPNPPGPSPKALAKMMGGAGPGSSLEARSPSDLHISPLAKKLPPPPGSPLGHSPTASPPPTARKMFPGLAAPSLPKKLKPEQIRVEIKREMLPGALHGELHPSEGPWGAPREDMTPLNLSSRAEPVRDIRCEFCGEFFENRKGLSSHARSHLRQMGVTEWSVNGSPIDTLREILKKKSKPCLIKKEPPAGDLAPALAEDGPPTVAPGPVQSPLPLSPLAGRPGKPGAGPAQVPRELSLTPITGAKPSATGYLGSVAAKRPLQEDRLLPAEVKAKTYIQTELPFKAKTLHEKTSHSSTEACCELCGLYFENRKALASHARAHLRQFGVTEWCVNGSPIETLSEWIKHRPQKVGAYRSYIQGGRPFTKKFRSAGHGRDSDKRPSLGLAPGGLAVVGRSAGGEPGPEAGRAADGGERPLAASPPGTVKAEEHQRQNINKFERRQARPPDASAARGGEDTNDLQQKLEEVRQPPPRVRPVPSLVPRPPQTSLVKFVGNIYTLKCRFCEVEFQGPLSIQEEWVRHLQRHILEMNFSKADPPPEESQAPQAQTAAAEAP
# Sequence (Q96SW2 whole entry, the tested form may be a part): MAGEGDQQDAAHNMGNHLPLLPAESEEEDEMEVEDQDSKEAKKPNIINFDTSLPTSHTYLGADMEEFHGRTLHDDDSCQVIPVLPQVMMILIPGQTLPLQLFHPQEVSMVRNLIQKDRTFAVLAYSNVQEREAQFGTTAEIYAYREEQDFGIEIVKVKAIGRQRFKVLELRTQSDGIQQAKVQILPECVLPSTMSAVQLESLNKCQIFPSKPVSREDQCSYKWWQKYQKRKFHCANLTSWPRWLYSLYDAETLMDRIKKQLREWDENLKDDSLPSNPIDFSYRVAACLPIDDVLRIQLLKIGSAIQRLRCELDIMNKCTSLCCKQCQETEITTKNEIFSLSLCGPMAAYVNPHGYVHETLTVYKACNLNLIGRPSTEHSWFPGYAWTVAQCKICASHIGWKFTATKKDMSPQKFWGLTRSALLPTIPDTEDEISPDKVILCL
# Sequence (Q16531 whole entry partner, the tested form may be a part): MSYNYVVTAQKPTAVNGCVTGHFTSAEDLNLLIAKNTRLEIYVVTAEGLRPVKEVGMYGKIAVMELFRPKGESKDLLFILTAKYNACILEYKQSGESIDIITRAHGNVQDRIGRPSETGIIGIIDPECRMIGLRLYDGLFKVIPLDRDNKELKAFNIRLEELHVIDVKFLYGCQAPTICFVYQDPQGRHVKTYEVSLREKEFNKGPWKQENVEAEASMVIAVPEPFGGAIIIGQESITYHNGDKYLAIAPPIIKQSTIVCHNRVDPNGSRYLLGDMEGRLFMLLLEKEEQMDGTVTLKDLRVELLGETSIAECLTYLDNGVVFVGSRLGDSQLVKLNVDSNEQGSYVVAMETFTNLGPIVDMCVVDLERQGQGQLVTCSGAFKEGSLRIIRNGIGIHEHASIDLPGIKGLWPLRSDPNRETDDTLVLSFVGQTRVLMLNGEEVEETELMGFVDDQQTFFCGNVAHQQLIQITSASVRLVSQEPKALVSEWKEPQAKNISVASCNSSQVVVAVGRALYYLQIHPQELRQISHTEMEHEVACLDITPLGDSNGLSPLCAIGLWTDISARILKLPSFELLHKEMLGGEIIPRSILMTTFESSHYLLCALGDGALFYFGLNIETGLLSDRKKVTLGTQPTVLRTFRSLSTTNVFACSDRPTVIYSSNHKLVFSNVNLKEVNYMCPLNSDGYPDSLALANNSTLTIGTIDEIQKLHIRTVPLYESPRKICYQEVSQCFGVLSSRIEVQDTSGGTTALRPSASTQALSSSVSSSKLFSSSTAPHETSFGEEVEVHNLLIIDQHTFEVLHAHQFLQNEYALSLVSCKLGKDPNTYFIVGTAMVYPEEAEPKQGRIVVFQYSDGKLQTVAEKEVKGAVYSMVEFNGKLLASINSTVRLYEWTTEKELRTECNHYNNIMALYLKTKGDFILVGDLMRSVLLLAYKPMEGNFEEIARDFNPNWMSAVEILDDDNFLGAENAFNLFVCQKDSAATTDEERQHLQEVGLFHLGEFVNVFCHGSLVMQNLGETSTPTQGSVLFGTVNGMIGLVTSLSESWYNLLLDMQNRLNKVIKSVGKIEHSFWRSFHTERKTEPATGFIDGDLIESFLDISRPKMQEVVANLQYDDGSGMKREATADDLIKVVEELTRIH
# Experiment Description: Quantification of WIZ protein levels in HiBit tag fusion protein assay (WIZ HiBit assay in 293T cells)
# Type: cell-based
# Test Settings: HEK-293T, DMSO-normalized, curve-fitted percentage of WIZ-HiBit remaining at 25 uM; 293T cells; read-out: WIZ Amax
Readout Label: remaining activity at up to 25 µM (%)

[1] COc1c(F)cc(C(=O)N2CCCC[C@H]2COc2ccc3c(c2)CN(C2CCC(=O)NC2=O)C3=O)cc1F (stereo partly drawn) [Compound I-72eg]
[2] COc1ccccc1C(=O)N1CCC[C@@H]1COc1ccc2c(c1)CN(C1CCC(=O)NC1=O)C2=O (stereo partly drawn) [Compound I-83]
[3] Cc1nc(C)c(CN2CCCC[C@@H]2COc2ccc3c(c2)CN(C2CCC(=O)NC2=O)C3=O)s1 (stereo partly drawn) [Compound I-145]
-- ask List these items ordered by remaining activity at up to 25 µM, big to small. Sort the labels as requested; that list is your answer.
-- reply 2, 1, 3
(2: 83.2%, 1: 27.9%, 3: 2.68%)

[1] O=C1CCC(N2Cc3cc(OC[C@@H]4CCCCN4Cc4ccc(C(=O)N5CCCC5)cc4)ccc3C2=O)C(=O)N1 (stereo partly drawn) [Compound I-50j]
[2] O=C1CCC(N2Cc3cc(OC[C@@H]4CCCCN4C(=O)c4csc(N5CCOCC5)n4)ccc3C2=O)C(=O)N1 (stereo partly drawn) [Compound I-72e]
[3] Cn1nc(CN2CCCC[C@@H]2COc2ccc3c(c2)CN(C2CCC(=O)NC2=O)C3=O)cc1-c1ccccc1 (stereo partly drawn) [Compound I-50dm]
-- ask List from greatest to least remaining activity at up to 25 µM. Hello, could you send the labels back in the order asked? Thank you.
-- reply 2, 1, 3

====

# Target Or Test System: HiBit-WIZ fusion protein (Homo sapiens, UniProt O95785+Q96SW2)
# Experiment Description: Quantification of WIZ protein levels in HiBit tag fusion protein assay (WIZ HiBit assay in 293T cells)
# Assay type: cell-based
# Test Settings: WIZ HiBit assay in 293T cells; 10-point, 5-fold dose response, highest concentration 25 μM, about 18 hours; read-out: WIZ AC50
Readout Label: DC50 (nM)

Cn1cncc1CN1CCCC[C@H]1COc1ccc2c(c1)CN(C1CCC(=O)NC1=O)C2=O (some centres unmarked) [Compound I-50ag] = 15200
Cc1nccn1-c1ccc(CN2CCCC[C@H]2COc2ccc3c(c2)CN(C2CCC(=O)NC2=O)C3=O)cc1 (some centres unmarked) [Compound I-50u] = 2640

[1] Cc1csc(CN2CCCC[C@@H]2COc2ccc3c(c2)CN(C2CCC(=O)NC2=O)C3=O)n1 (some centres unmarked)
[2] O=C1CCC(N2Cc3cc(OC[C@H]4CCCCN4Cc4ccc(C(=O)N5CCCC5)cc4)ccc3C2=O)C(=O)N1 (some centres unmarked) [Compound I-50bs]
[3] CC(C)(C)c1ccc(CN2CCCC[C@@H]2COc2ccc3c(c2)CN(C2CCC(=O)NC2=O)C3=O)cc1 (some centres unmarked)
[4] O=C1CCC(N2Cc3cc(OC[C@H]4CCCCN4CC45CC(F)(C4)C5)ccc3C2=O)C(=O)N1 (some centres unmarked)
[5] CCN1[C@@H]2CC[C@@H](C2)[C@H]1COc1ccc2c(c1)CN(C1CCC(=O)NC1=O)C2=O (some centres unmarked)
-- ask List by increasing DC50. Please, when replying, give the labels in the order that was requested.
-- reply 3, 2, 5, 4, 1
(3: 0.083 nM, 2: 18 nM, 5: 72 nM, 4: 410 nM, 1: 3430 nM)

[a] O=C1CCC(N2Cc3cc(OC[C@H]4CCCCN4Cc4ccc(-n5nccn5)cc4)ccc3C2=O)C(=O)N1 (some centres unmarked) [Compound I-50eg]
[b] O=C1CCC(N2Cc3cc(OC[C@H]4CCCCN4Cc4ccc(O)cc4)ccc3C2=O)C(=O)N1 (some centres unmarked)
[c] CCc1noc(CC)c1C(=O)N1CCCC[C@H]1COc1ccc2c(c1)CN(C1CCC(=O)NC1=O)C2=O (some centres unmarked) [Compound I-72s]
[d] Cc1nc(-c2cccc(CN3CCCC[C@@H]3COc3ccc4c(c3)CN(C3CCC(=O)NC3=O)C4=O)c2)no1 (some centres unmarked) [Compound I-50du]
-- ask // ranking: key=DC50, reverse=True // list labels; follow requested order
-- reply d, c, b, a

====

# Target Or Test System: HiBit-WIZ fusion protein (Homo sapiens, UniProt O95785+Q96SW2)
# Experiment Description: Quantification of WIZ protein levels in HiBit tag fusion protein assay (WIZ HiBit assay in 293T cells)
# Type: cell-based
# Test Settings: HEK-293T, DMSO-normalized, curve-fitted percentage of WIZ-HiBit remaining at 25 uM; 293T cells; read-out: WIZ Amax
Readout Label: remaining activity at up to 25 µM (%)

COc1ccc(C(=O)N2CCCC[C@H]2COc2ccc3c(c2)CN(C2CCC(=O)NC2=O)C3=O)cc1OCc1ccccc1 (stereo partly drawn) [Compound I-72d] = 28.4

[1] CN(C)Cc1ncc(-c2ccc(Oc3cc(Cl)cnc3CN3CCCC[C@H]3COc3ccc4c(c3)CN(C3CCC(=O)NC3=O)C4=O)cc2)n1C (stereo partly drawn) [Compound I-50z]
[2] O=C1CCC(N2Cc3cc(OC[C@@H]4CCCCN4Cc4cocn4)ccc3C2=O)C(=O)N1 (stereo partly drawn) [Compound I-50e]
-- ask I'm curious whether 1 or 2 has the smaller remaining activity at up to 25 µM number. Which is it? Refer to your chosen item by its label in the answer.
-- reply 1

====

# Target Or Test System: HiBit-WIZ fusion protein (Homo sapiens, UniProt O95785+Q96SW2)
# Experiment Description: Quantification of WIZ protein levels in HiBit tag fusion protein assay (WIZ HiBit assay in 293T cells)
# Type: cell-based
# Test Settings: WIZ HiBit assay in 293T cells; 10-point, 5-fold dose response, highest concentration 25 μM, about 18 hours; read-out: WIZ AC50
Readout Label: DC50

Consider the reported DC50 for these molecules:
O=C1CCC(N2Cc3cc(OC[C@@H]4CCCCN4C(=O)c4cccc(OC(F)F)c4)ccc3C2=O)C(=O)N1 (stereo partly drawn) [Compound I-72hx] = > 25 µM
N#Cc1cccc(Cn2cccc(CN3CCCC[C@H]3COc3ccc4c(c3)CN(C3CCC(=O)NC3=O)C4=O)c2=O)c1 (stereo partly drawn) [Compound I-50aw] = > 25 µM

For the next question, use this molecule.
Given item COc1ccccc1C(=O)N1CCC[C@@H]1COc1ccc2c(c1)CN(C1CCC(=O)NC1=O)C2=O (stereo partly drawn) [Compound I-83] , the value recorded as its DC50 is > 25 µM

====

# Target Or Test System: HiBit-WIZ fusion protein (Homo sapiens, UniProt O95785+Q96SW2)
# Experiment Description: Quantification of WIZ protein levels in HiBit tag fusion protein assay (WIZ HiBit assay in 293T cells)
# Format: cell-based
# Test Settings: WIZ HiBit assay in 293T cells; 10-point, 5-fold dose response, highest concentration 25 μM, about 18 hours; read-out: WIZ AC50
Readout Label: DC50

Consider the following illustrative entries.
COC(=O)[C@@H]1CC[C@H](CN2CCCC[C@H]2COc2ccc3c(c2)CN(C2CCC(=O)NC2=O)C3=O)C1 (stereo partly drawn) [Compound I-50cz] = > 25 µM
Cn1c(CN2CCCC[C@@H]2COc2ccc3c(c2)CN(C2CCC(=O)NC2=O)C3=O)nc2ccccc21 (stereo partly drawn) [Compound I-50cw] = > 25 µM
O=C1CCC(N2Cc3cc(OC[C@H]4CCCCN4Cc4ccc(N5CCOCC5)cc4)ccc3C2=O)C(=O)N1 (stereo partly drawn) [Compound I-50dx] = 0.002 µM
O=C1CCC(N2Cc3cc(OC[C@@H]4CCCCN4Cc4ccccc4OCCN4CCOCC4)ccc3C2=O)C(=O)N1 (stereo partly drawn) [Compound I-50ab] = > 25 µM
CN(C)c1cccc(C(=O)N2CCCC[C@H]2COc2ccc3c(c2)CN(C2CCC(=O)NC2=O)C3=O)c1 (stereo partly drawn) [Compound I-72gg] = > 25 µM

We now examine a further molecule.
DC50 reading for O=C1CCC(N2Cc3cc(OC[C@@H]4CCCCN4C(=O)c4cccc(S(=O)(=O)O)c4)ccc3C2=O)C(=O)N1 (stereo partly drawn) [Compound I-72a] : > 25 µM

====

# key: entry, value: DC50
# Target Or Test System: HiBit-WIZ fusion protein (Homo sapiens, UniProt O95785+Q96SW2)
# Experiment Description: Quantification of WIZ protein levels in HiBit tag fusion protein assay (WIZ HiBit assay in 293T cells)
# Format: cell-based
# Test Settings: WIZ HiBit assay in 293T cells; 10-point, 5-fold dose response, highest concentration 25 μM, about 18 hours; read-out: WIZ AC50

Answered examples (2):
CCOC(=O)c1cccc2[nH]nc(CN3CCCC[C@H]3COc3ccc4c(c3)CN(C3CCC(=O)NC3=O)C4=O)c12 (stereo partly drawn) [Compound I-50au] = > 25 µM
COc1ccc(CN2CCCC[C@H]2COc2ccc3c(c2)CN(C2CCC(=O)NC2=O)C3=O)cn1 (stereo partly drawn) [Compound I-50bf] = > 25 µM

Would you kindly look at the next entry?
Item CCN1CCC[C@@H](C(=O)N2CCCC[C@H]2COc2ccc3c(c2)CN(C2CCC(=O)NC2=O)C3=O)C1 (stereo partly drawn) [Compound I-72it] was tested on HiBit-WIZ fusion protein (Homo sapiens, UniProt O95785+Q96SW2); the reported DC50 is > 25 µM
